A collection of compounds and their measured Zones of Inhibition Against Pseudomonas aeruginosa (mm) 2% Bismuth Salt + 3% Minocycline
- Test system: Pseudomonas aeruginosa
- assay-method-text: Zones of inhibition of treated catheter segments on seeded trypticase soy agar plates, 24 hours
endpoint-label: Zones of Inhibition Against Pseudomonas aeruginosa (mm) 2% Bismuth Salt + 3% Minocycline

| compound | test-system | measured-number |
| --- | --- | --- |
| O=C([O-])c1ccccc1.O=C([O-])c1ccccc1.O=C([O-])c1ccccc1.[Bi+3] [Bismuth benzoate, bismuth benzoate] | Pseudomonas aeruginosa | 18 |
| CC(=O)[O-].CC(=O)[O-].CC(=O)[O-].[Bi+3] [Bismuth acetate, bismuth acetate] | Pseudomonas aeruginosa | 17 |
| [Bi+3].[O-]B([O-])[O-] [Bismuth borate, bismuth borate] | Pseudomonas aeruginosa | 13 |
| O=C([O-])CC(O)(CC(=O)[O-])C(=O)[O-].[Bi+3] [Bismuth citrate, bismuth citrate] | Pseudomonas aeruginosa | 17 |
